# MEASUREMENT NOTES: yeast display, Sf9 membrane polyspecificity reagent, FACS + sequencing; frameworks hold sequencing errors
RESULT TYPE: polyreactivity (PSR sort gate)

>  <SEQ STRING>
QVQLVESGGGLVQAGGSLRLSCAASGSIFYRNTMGWYRQAPGKERELVAAITYSGGSTYYADSVKGRFTISRDNAKNTVYLQMNSLKPEDTAVYYCAVTDFYSYLLRYDSWGQGTQVTVSS

>  <VALUE>
low polyreactivity

$$$$
>  <SEQ STRING>
QVQLVESGGGLVQAGGRLRLSCAASGSILGEYAMGLNRQANGKERELVAAISVGGCSTYYADSVKGRFTISRDNAKNTVYLQMNSLKPVDTAVYYCSAYDYQSEMYYWGQGTQVTVSS

>  <VALUE>
high polyreactivity

$$$$
>  <SEQ STRING>
QVQLVESGGGLVQAGVRLRLSCAASGFIFVVNAMGWYRPATRKEREFVAVISSSTGSTYYADSVKGRFTISRDNAKYTVYLPMNSLKPEDTAVYYCAAASRRRRPLKRMDYWGQGTQVTVSS

>  <VALUE>
low polyreactivity

$$$$
>  <SEQ STRING>
QVQLVESGGGLVQAGGSLRLSCAASGRIFNIYAMGWYRQAPGKERELVAAISGSGGRTSYADSVKGRFTISRDNAKNTVYLQMNSLKPEDTAVYYCAADYSYYTSFRYDYWGQGTQVTVSS

>  <VALUE>
low polyreactivity

$$$$
>  <SEQ STRING>
QVQLVESGGGLVQAGGSLRLSCAASGGTFSQYAMGWYRQAPGKERELVARISRRGGSTSYADSVKGRFTISRDNAKNTVYLQMNSLKPEDTAVYYCAKDAPSVYPGRFGNTGGYAYDYWGQGTQVTVSS

>  <VALUE>
high polyreactivity

$$$$
>  <SEQ STRING>
QVQLVESGGGLVQAGGSLPLSCAATGRTFSYNAMGSYRQAPAKETELVAAISSGGTTNYADSVKGRFTISRDNAKNTVYLQMNSVKPDDTAVYYCNADRLVWSFTDYGFSQYDYWGQGTQVTVSS

>  <VALUE>
low polyreactivity

$$$$
>  <SEQ STRING>
QVQLQDSGGGLVQAGGSLRQNCETSGTIFVLWYMGWYRQAPGKERELVATINDGANTYYADSVKGRFTINRDNANSTVYMKMNSLIPEDTAVYYCAVYAIIVWGLGYWGQGTQVTVSS

>  <VALUE>
high polyreactivity

$$$$
>  <SEQ STRING>
QVQLVESGGRLVQAGGSLRLRGAASGNTNIPNAMGWYRQAPGKERELLAAIRASGGSTYYADSVKGRFTISRDNAKNTVYFQLNSLKTEDTSVYYCNADIWYKTYDYWGQGTQVTVSS

>  <VALUE>
low polyreactivity

$$$$
>  <SEQ STRING>
QVQLVESGGGLVQAGGSLRLSCAASGNIFVNYAMGWYRQAPGKERELVASINYNGGNTYYADSVKGRFTISRDNAKNTVYLQMNSLKPEDTAVYYCAADLPESPESYYDTDDYWGQGTQVTVSS

>  <VALUE>
low polyreactivity

$$$$
>  <SEQ STRING>
QVQLVESGGGLVQAGGSLRLSCAASGSISGYYAMGWYRQAPGKERDLVASIRYTGARTYYADSVKGRFTISRDNAKNTVYVQMNSLKPEDTAVYYCAADVKRERVWGGDYWGLGTQVTVSS

>  <VALUE>
low polyreactivity

$$$$
>  <SEQ STRING>
QVQLVESGGGLVQAGGRLRLSCAASGSIFGKYAMGWYRQAPGKERELVAAISKGGGRTSYADSVKGRFTISRDNAKNTVYLQMNSLKPEDTAVYYCNRYTQYRDRSDNHWGQGTQVTVSS

>  <VALUE>
high polyreactivity

$$$$

The origin of these recorded values is the nanobody polyreactivity screen of Harvey et al. (2022).
